settings: basic group
parameter.measured: pKa
Answer using only a numeral; do not append any unit.

Data request: // query pKa value for entry "CN1C(=N)Cc2ccccc21"
Data returned: 9.6

Data request: Fill blank: measured pKa of the molecule Cc1ccc(C2CCCN2)cc1 (stereo not drawn) is ____.
Data returned: 9.99

----------
settings: basic group
Categories are defined by ranges of pKa, namely 0 (below 6), 1 (6 to below 9), 2 (9 or more)

Below, 3 molecules whose answers are already recorded.
- molecule: "Nc1nc2c(o1)CCCC2"
  assigned.category: 0
- molecule: "[O-]c1nc2ccccc2[nH]1"
  assigned.category: 2
- molecule: "C[C@@H]1CCCC[C@@H]1N"
  assigned.category: 2

Data request: Assign a category based on measured pKa for "CCNNC" and give only the class name.
Data returned: 1

Data request: Would you mind sorting CC(O)CN(CCN1CCOCC1)CC(C)O (centres undefined) into the appropriate category?
Data returned: 1

Data request: Hi, small favor: classify "CNCCCC(=O)[O-]" by its pKa when you get a moment.
Data returned: 2

----------
details: acidic group
Measured pKa values are reported for all entries that follow.
Lab note: write the figure by itself, no unit.

Here is how some molecules turned out for pKa.
- molecule: "Nc1n[nH]c(N)c1/N=N/c1ccccc1O"
  reported.result: 8.22
- molecule: "Cc1cn([C@@H]2C[C@@H](O)[C@H](CO)O2)c(=O)[nH]c1=S"
  reported.result: 8.8
- molecule: "Oc1c2ccccc2[nH+]c2ccccc12"
  reported.result: 0.32
- molecule: "CCSC(O)O"
  reported.result: 11.5
- molecule: "Cc1cc(I)ccc1C(=O)O"
  reported.result: 3.79

Data request: Look at this molecule and give its reported pKa. "CC[C@H](C(=O)O)[C@@]1(O)C[C@H]2CC[C@@H]1C2"
Data returned: 4.07

Data request: Look up pKa for this molecule: CC1CC(C)C(=O)CC1=O (stereo not drawn)
Data returned: 5.62

Data request: Quick one: pKa of "CCO/C([O-])=N/c1ncnc2nc[nH]c12" ?
Data returned: 12.2

----------
conditions: basic group
Grouping key: pKa. Bins: lower bin: < 4; middle bin: ≥ 4 and < 9; upper bin: ≥ 9

Recorded results for 5 compounds are shown here.
- compound: "C=CCN(C)CCOC(=O)C(=C)C"
  assigned.category: "middle bin"
- compound: "c1ccc(-c2cc(-c3ccccc3)c(NCCN3CCOCC3)nn2)cc1"
  assigned.category: "middle bin"
- compound: "Cn1c(=O)c2[nH]cnc2n(C)c1=O"
  assigned.category: "middle bin"
- compound: "O=[N+]([O-])c1ccc(-c2cnc(-c3ccccc3)o2)cc1"
  assigned.category: "lower bin"
- compound: "CCN1[C@@H](C)[C@@H]1C (some centres not stated)"
  assigned.category: "upper bin"

Data request: Determine which band this compound sits in: "C1CCC(N2CCCC2)CC1"
Data returned: upper bin

Data request: Lab note: sort "Cc1cc2cccc(O)c2nc1C" into the matching pKa band.
Data returned: middle bin

Data request: Quick check: band for "CN(C)CCCCC(=O)Oc1cccc([N+](=O)[O-])c1"
Data returned: upper bin

Data request: Which category does the recorded pKa put "CN(C)CCCCCCNC(=O)/C=N/[O-]" in?
Data returned: upper bin

Data request: Field: class (pKa) — entry: "CC(=O)c1cccnc1"
Data returned: lower bin

Data request: Please let me know in which category the item "CN(C(=O)c1ccccc1)c1cccnc1" belongs.
Data returned: lower bin

----------
conditions: basic group
// label = MET if pKa is not less than 4, otherwise NOT MET

Solved entries:
- structure.smiles.string: "CNc1cccc(C)c1"
  assigned.category: "MET"
- structure.smiles.string: "Nc1ccc(Br)cc1"
  assigned.category: "NOT MET"
- structure.smiles.string: "O=Cc1ncccc1O"
  assigned.category: "NOT MET"

Now take the following compound into account.
Data request: Reported pKa at or above 4? "CC[C@]1(O)C[C@@H](C)N[C@@H]2CCCC[C@H]21"
Data returned: MET

----------
This section presents molecules with their documented pKa values.
conditions: basic group
Just the number, please.

Here are 6 molecules together with their reported answers.
- molecule: "CC(C)(C)N"
  parameter.measured: "pKa"
  reported.result: 10.7
- molecule: "CC(C)[NH+](CCC(c1ccccc1)c1ccccn1)C(C)C (stereo not given)"
  parameter.measured: "pKa"
  reported.result: 3.2
- molecule: "Nc1nnnn1-c1ccc(Cl)cc1"
  parameter.measured: "pKa"
  reported.result: 0.78
- molecule: "O=C(CCN1CCOCC1)c1ccccc1"
  parameter.measured: "pKa"
  reported.result: 6.5
- molecule: "Cc1c[nH+]c([O-])nc1N"
  parameter.measured: "pKa"
  reported.result: 4.69
- molecule: "C#CCCCN"
  parameter.measured: "pKa"
  reported.result: 10.2

API: the following record is the query input.
Data request: Bench note: what pKa did "Cn1cnc2ncn(C)c2c1=O" show?
Data returned: 2.16

----------
conditions: acidic group
Overview of recorded pKa for various compounds

- structure.smiles.string: "Nc1nc[nH+]c(S)c1N"
  parameter.measured: "pKa"
  reported.result: 2.21
- structure.smiles.string: "Nn1cnnc1"
  parameter.measured: "pKa"
  reported.result: 11.8
- structure.smiles.string: "CCOc1ccccc1/C=C/C(=O)O"
  parameter.measured: "pKa"
  reported.result: 4.68

Now turn to the next compound.
Data request: What measured pKa goes with "CCCCOC(=O)c1ccc(O)cc1" ?
Data returned: 8.34

----------
Entries annotated with measured pKa
conditions: basic group
Please give the numeric answer without any surrounding text.

Past entries and their recorded results:
- compound: "COc1ccc(CN)cc1OC"
  reported.result: 9.39
- compound: "CCN(CC)c1ccc([N+](=O)[O-])cc1"
  reported.result: 1.7
- compound: "Nc1ccc2c(c1)-c1ccccc1C2"
  reported.result: 4.68

Data request: Any idea what its pKa is? The compound is "CN1CCCN(C)c2cccc3cccc1c23"
Data returned: 10.3

Data request: Dear colleague, I am looking for the recorded pKa of the following compound: "Nc1cccc([NH3+])c1O"
Data returned: 2.7

Data request: // query pKa value for entry "Cc1cc[nH]n1"
Data returned: 3.66

Data request: May I ask what pKa has been recorded for "CNC(C)=S" ?
Data returned: -1.9

Data request: Any idea what its pKa is? The compound is "Nc1nc(N)nc(N)n1"
Data returned: 5.06

Data request: Sample CCOC(=O)C(C)N (centres undefined) — what was its pKa?
Data returned: 7.8

----------
settings: acidic group
parameter.measured: pKa
Form rule: numeric answer, no unit written next to it.

- compound: "O=C(O)C1CC[NH2+]C1 (centres undefined)"
  pKa: 3.38
- compound: "Cc1ccc(C(=S)Nc2ccc(Cl)c(Cl)c2)cc1"
  pKa: 10.2
- compound: "OCCN1CCN(CCO)CC1"
  pKa: 7.75
- compound: "NC(=O)C(CC(=O)O)c1ccccc1 (centres undefined)"
  pKa: 4.23

Data request: Recorded pKa for "O=C(c1ccccc1)c1ccc(O)cc1" , please?
Data returned: 8.01

Data request: For the compound "c1cn[nH]c1" , what pKa is on record?
Data returned: 14.2

Data request: Given "C[C@@H]([NH3+])C(=O)N1CCC[C@H]1C(=O)O" , state its recorded pKa.
Data returned: 3.04

----------
settings: acidic group
Class label 1: pKa at least 5. Class label 0: pKa below 5.

Past entries and their recorded results:
- structure.smiles.string: "CC(C)(C)c1ccccc1C(=O)O"
  assigned.category: "label 0"
- structure.smiles.string: "S=C(Nc1ccc(Cl)cc1)c1ccc(Cl)cc1"
  assigned.category: "label 1"
- structure.smiles.string: "O=C(c1ccccc1)N(O)c1ccccc1"
  assigned.category: "label 1"
- structure.smiles.string: "CC(=O)Nc1ccc(S(=O)(=O)Nc2nccc(C)n2)cc1"
  assigned.category: "label 1"
- structure.smiles.string: "CC(=O)N(c1ccccc1)c1nnc(S(N)(=O)=O)s1"
  assigned.category: "label 1"
- structure.smiles.string: "Cc1cc(O)n(C2CC[NH+](C)CC2)n1"
  assigned.category: "label 1"

Data request: # check: pKa of "O=C(O)c1cc([N+](=O)[O-])ccc1O" is greater than or equal to 5
Data returned: label 0

Data request: Given "C/C(=N\O)C(=O)[O-]" , state whether its pKa is at least 5.
Data returned: label 1

Data request: Threshold query (pKa >= 5) on "NS(=O)(=O)C(F)(F)I"
Data returned: label 1

Data request: Has "O=C1C=C(S(=O)(=O)[O-])/C(=N\O)c2cn[nH]c21" a recorded pKa greater than or equal to 5?
Data returned: label 1

Data request: Does pKa meet or surpass 5 for "c1ccc2cc3[nH]cnc3cc2c1" ?
Data returned: label 1

Data request: State whether the measured pKa reaches 5, counting equality as reaching it, for "[NH3+]CCCC#CC#CCCC(=O)O"
Data returned: label 0

Data request: Does the reported pKa for "O/N=C\c1ccco1" fall at or above the 5 mark?
Data returned: label 1
